# Tested on: LXRb:RXRa (NR concentration 270 nM, RXRa partner concentration 90 nM)
# TEST DESCRIPTION: PBM binding z-score (relative to random genomic background probes); higher = stronger binding; sequences stand for … in GC…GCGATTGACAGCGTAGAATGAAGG
Values of PBM binding z-score greater than or equal to 0.8 map to y; values below map to n.

Textbook exercise: given the entry "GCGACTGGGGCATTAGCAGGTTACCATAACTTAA" , state whether its PBM binding z-score is greater than or equal to 0.8.
y

Form field: PBM binding z-score at least 0.8? Entry: "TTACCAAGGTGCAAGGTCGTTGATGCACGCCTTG"
n

API: above_or_equal(metric=PBM binding z-score, cutoff=0.8) for item "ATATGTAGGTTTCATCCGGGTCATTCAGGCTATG"
y

Decide: PBM binding z-score of "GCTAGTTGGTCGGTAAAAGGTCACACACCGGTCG" >= 0.8?
y

Form field: PBM binding z-score at least 0.8? Entry: "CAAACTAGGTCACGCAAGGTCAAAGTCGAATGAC"
y

Would you say "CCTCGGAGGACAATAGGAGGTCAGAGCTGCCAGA" shows PBM binding z-score at minimum 0.8?
y

Quick check: does "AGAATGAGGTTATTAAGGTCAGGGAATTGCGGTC" have PBM binding z-score greater than or equal to 0.8?
y

Does "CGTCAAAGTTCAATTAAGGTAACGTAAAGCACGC" have a reported PBM binding z-score of at least 0.8?
y

PBM binding z-score >= 0.8 for "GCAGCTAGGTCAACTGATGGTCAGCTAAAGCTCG" ?
y

In plain terms: is recorded PBM binding z-score at least 0.8 for "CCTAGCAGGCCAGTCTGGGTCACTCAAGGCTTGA" ?
n

Given "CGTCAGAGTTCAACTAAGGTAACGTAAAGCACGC" , state whether its PBM binding z-score is at least 0.8.
y

Does PBM binding z-score meet or surpass 0.8 for "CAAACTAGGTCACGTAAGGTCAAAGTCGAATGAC" ?
y

Quick check: does "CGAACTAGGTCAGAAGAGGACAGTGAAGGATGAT" have PBM binding z-score greater than or equal to 0.8?
n

Determine whether this sequence has PBM binding z-score no lower than 0.8: "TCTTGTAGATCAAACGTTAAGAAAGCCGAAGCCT"
n

API: above_or_equal(metric=PBM binding z-score, cutoff=0.8) for item "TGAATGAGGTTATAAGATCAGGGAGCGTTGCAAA"
n

Does the sequence "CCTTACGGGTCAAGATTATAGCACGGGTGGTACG" have recorded PBM binding z-score that is 0.8 or more?
y

Could you please find out whether "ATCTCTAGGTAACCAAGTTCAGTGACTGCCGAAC" has PBM binding z-score that meets 0.8 or exceeds it?
y

Does PBM binding z-score meet or surpass 0.8 for "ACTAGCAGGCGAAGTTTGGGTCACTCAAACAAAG" ?
n

Record "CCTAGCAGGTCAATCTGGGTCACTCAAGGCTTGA" ; criterion: PBM binding z-score no lower than 0.8. Met?
y

Hello, I need to know if "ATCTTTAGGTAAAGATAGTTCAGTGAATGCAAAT" has measured PBM binding z-score not below 0.8. Thanks!
y

I'd appreciate it if you could say whether "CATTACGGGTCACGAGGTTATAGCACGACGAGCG" has PBM binding z-score at least equal to 0.8.
y

Is it the case that "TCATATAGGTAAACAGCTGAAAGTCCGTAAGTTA" has PBM binding z-score reaching or exceeding 0.8?
n

Confirm if PBM binding z-score reported for the sequence "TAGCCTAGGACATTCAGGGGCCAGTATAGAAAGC" is 0.8 or above.
n

Please tell me: is the sequence "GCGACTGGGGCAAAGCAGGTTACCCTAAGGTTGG" at or over 0.8 in terms of PBM binding z-score?
n

Does PBM binding z-score meet or surpass 0.8 for "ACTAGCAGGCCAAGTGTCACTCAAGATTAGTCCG" ?
n

// inclusive: PBM binding z-score at least 0.8? input: "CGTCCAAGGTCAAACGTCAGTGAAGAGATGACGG"
y

Is PBM binding z-score for "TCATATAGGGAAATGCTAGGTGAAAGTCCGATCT" at or above 0.8?
n
